Target: Human Recombinant ROCK II Enzyme (Homo sapiens, UniProt O75116)
Construct: purchased Upstate USA, Inc., Lake Placid, N.Y. 14-451
Sequence (O75116 11-552): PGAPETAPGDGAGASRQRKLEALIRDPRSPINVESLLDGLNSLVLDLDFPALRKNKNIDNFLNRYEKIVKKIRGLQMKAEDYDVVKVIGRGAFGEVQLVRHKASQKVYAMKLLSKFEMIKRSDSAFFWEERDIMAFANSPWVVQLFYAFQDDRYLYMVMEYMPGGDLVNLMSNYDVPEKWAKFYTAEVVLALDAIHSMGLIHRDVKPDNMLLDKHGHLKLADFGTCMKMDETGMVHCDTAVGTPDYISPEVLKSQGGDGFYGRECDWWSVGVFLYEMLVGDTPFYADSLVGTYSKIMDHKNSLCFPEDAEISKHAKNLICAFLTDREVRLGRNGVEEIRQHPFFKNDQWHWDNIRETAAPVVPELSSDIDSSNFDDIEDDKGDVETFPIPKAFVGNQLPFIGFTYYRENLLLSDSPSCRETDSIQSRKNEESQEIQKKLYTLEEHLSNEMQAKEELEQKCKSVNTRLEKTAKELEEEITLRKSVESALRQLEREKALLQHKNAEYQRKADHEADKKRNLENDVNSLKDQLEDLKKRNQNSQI
Test: High throughput human recombinant ROCK II enzyme inhibition assay (γ-33P-ATP, Long S6 substrate peptide, filter mat)
Assay type: biochemical
Details: Hill coefficient of the inhibition plots; mean ± SEM
Description: The enzyme assays are performed using a Biomek 2000 Robotic Workstation (Beckman Instruments, Palo Alto, Calif.) in a 96-well format using γ-^33P-ATP (Perkin-Elmer Life Sciences, Boston, Mass.). Stock γ-^33P-ATP (3000 Ci/mmol) is diluted to 1 μCi/μl with the MgCl2/ATP cocktail solution. […] The unutilized [γ-^33P]-ATP and other residual reagents are thereby eliminated from the filter mat but the radioactive phosphorylated peptide product is retained on the filter mat for quantification. […]
Some compounds, each annotated with its measured Hill Coefficient (nH).
Respond with the number and no other words.

Known Hill Coefficient (nH) results, listed for orientation:
Compound: O=S(=O)(c1cccc2c(Cl)cccc12)N1CCCNCC1 [J, ML-9]
Subject Of Test: Human Recombinant ROCK II Enzyme (Homo sapiens, UniProt O75116)
Hill Coefficient (nH): 0.9
--
Compound: Cc1cncc2cccc(S(=O)(=O)N3CCNC(C)C3)c12 (stereo not drawn) [F]
Subject Of Test: Human Recombinant ROCK II Enzyme (Homo sapiens, UniProt O75116)
Hill Coefficient (nH): 0.94
--
Compound: Cc1cncc2cccc(S(=O)(=O)N3CCCN(C)C(C)C3)c12 (stereo not drawn) [H]
Subject Of Test: Human Recombinant ROCK II Enzyme (Homo sapiens, UniProt O75116)
Hill Coefficient (nH): 0.95
--
Compound: CC1CN(S(=O)(=O)c2cccc3cnccc23)CCN1 (stereo not drawn) [I, HA-135]
Subject Of Test: Human Recombinant ROCK II Enzyme (Homo sapiens, UniProt O75116)
Hill Coefficient (nH): 0.91
--
Compound: CC1CNCCN1S(=O)(=O)c1cccc2cnccc12 (stereo not drawn) [E, H-7]
Subject Of Test: Human Recombinant ROCK II Enzyme (Homo sapiens, UniProt O75116)
Hill Coefficient (nH): 0.99

Next compound, please.
Record Cc1cncc2c1=C(S(=O)(=O)N1CCCN(C)CC1C)CCC=2 (stereo not drawn) [B] / Human Recombinant ROCK II Enzyme (Homo sapiens, UniProt O75116), Hill Coefficient (nH) recorded as 0.6
